system: HH; experiment: cells; type: functional, cell-based; conditions: Homo sapiens
Description: SANGER: Inhibition of human HH cell growth in a cell viability assay.
Catalogue of log10 of IC50 readings, one per entry.
reportedProperty: log10 of IC50 (log10 of the value in µM)

| chemicalSmiles | log10 of IC50 |
| --- | --- |
| C[C@]12O[C@H](C[C@]1(O)CO)n1c3ccccc3c3c4c(c5c6ccccc6n2c5c31)CNC4=O | -0.30 |
| NC(=O)c1ncn([C@@H]2O[C@H](COP(=O)(O)O)[C@@H](O)[C@H]2O)c1N | 2.37 |
| O=c1cc(N2CCOCC2)oc2c(-c3cccc4c3sc3ccccc34)cccc12 | 0.07 |
| CO[C@@]12[C@H](COC(N)=O)C3=C(C(=O)C(C)=C(N)C3=O)N1C[C@@H]1N[C@@H]12 | 0.03 |
| CC(=O)c1c(C)c2cnc(Nc3ccc(N4CCNCC4)cn3)nc2n(C2CCCC2)c1=O | -0.22 |
| Cn1c(=O)n(-c2ccc(C(C)(C)C#N)cc2)c2c3cc(-c4cnc5ccccc5c4)ccc3ncc21 | -1.80 |
| Cc1n[nH]c2ccc(-c3cncc(OC[C@@H](N)Cc4c[nH]c5ccccc45)c3)cc12 | -0.65 |

###

tested on: ALL-PO; experiment: cells; assay type: functional, cell-based; conditions: Homo sapiens;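 note: growth inhibition of ALL-PO cells, read out by a cell viability assay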
Description: SANGER: Inhibition of human ALL-PO cell growth in a cell viability assay.
Catalogue of IC50 readings, one per entry.
reportedProperty: IC50 (nM)

| chemicalSmiles | reportedProperty | reportedRelation | value |
| --- | --- | --- | --- |
| COc1cc(Nc2c(C#N)cnc3cc(OCCCN4CCN(C)CC4)c(OC)cc23)c(Cl)cc1Cl | IC50 | > | 2000 |
| CCNc1cc(N[C@H]2CC[C@@H](O)CC2)nc(Nc2ccc3c(ccn3Cc3ccccc3)c2)n1 | IC50 | > | 5120 |
| N#C/C(=C1/Nc2ccccc2S1)c1ccnc(NCCc2cccnc2)n1 | IC50 | = | 1790 |
| CO[C@@]12[C@H](COC(N)=O)C3=C(C(=O)C(C)=C(N)C3=O)N1C[C@@H]1N[C@@H]12 | IC50 | = | 31 |
| Fc1cc(-c2cc[nH]/c(=N/c3ccc(-n4cnc(N5CCOCC5)n4)cc3)n2)cc(N2CCOCC2)c1 | IC50 | = | 671 |
| Cc1nc(Nc2ncc(C(=O)Nc3c(C)cccc3Cl)s2)cc(N2CCN(CCO)CC2)n1 | IC50 | > | 1280 |

###

test system: SF-268; experiment: cells; type: functional, cell-based; details: Homo sapiens;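 note: growth inhibition of SF-268 cells determined with a cell viability assay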
Description: SANGER: Inhibition of human SF268 cell growth in a cell viability assay.
pIC50: −log10 of the molar value.
Catalogue of pIC50 readings, one per entry.

| compound | pIC50 |
| --- | --- |
| C/C=C(/C)C(=O)O[C@H]1C(C)=C2[C@H]([C@@H]1OC(=O)CCCCCCC)[C@@](C)(OC(C)=O)C[C@H](OC(=O)CCC)[C@@]1(O)[C@H]2OC(=O)[C@@]1(C)O [THAPSIGARGIN] | 8.65 |
| CCNc1cc(N[C@H]2CC[C@@H](O)CC2)nc(Nc2ccc3c(ccn3Cc3ccccc3)c2)n1 | < 5.29 |
| NC(=O)c1ncn([C@@H]2O[C@H](COP(=O)(O)O)[C@@H](O)[C@H]2O)c1N | < 2.70 |
| O=c1[nH]c2ccccc2n1C1CCN(Cc2ccc(-c3nc4cc5[nH]cnc5cc4nc3-c3ccccc3)cc2)CC1 | < 5.59 |
| C/C(O)=C(\C#N)C(=O)Nc1cc(Br)ccc1Br | < 4.80 |
| CC(O)(CS(=O)(=O)c1ccc(F)cc1)C(=O)Nc1ccc(C#N)c(C(F)(F)F)c1 (configuration not stated) [BICALUTAMIDE] | < 5.99 |
| Cc1[nH]c(/C=C2\C(=O)Nc3ccc(S(=O)(=O)Cc4c(Cl)cccc4Cl)cc32)c(C)c1C(=O)N1CCC[C@@H]1CN1CCCC1 [PHA-665752] | < 5.70 |
